Biological target: CXCR6 (Homo sapiens, UniProt O00574)
Sequence (O00574 whole entry): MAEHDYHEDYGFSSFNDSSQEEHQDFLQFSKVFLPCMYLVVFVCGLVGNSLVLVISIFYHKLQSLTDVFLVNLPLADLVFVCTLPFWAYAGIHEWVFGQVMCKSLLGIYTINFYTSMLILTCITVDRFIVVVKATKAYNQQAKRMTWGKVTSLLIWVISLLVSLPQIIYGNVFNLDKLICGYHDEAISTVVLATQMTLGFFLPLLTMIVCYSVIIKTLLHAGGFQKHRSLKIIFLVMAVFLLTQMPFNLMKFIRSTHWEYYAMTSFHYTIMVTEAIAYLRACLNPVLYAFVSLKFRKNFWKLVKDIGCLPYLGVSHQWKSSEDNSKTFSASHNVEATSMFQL
Experiment: β-arrestin recruitment inhibition in CXCR6-expressing CHO-K1 cells (PathHunter, DiscoveRx)
Type: cell-based
Conditions: CXCR6-expressing CHO-K1 cells; Table B-1; read-out: IC50 (β-arrestin)
pIC50: −log10 of the molar value.
Provide the reported pIC50 of each item.

Give me measured pIC50, please, for this molecule: COc1cc(C(=O)N[C@@H]2C[C@H]3CCC[C@@H](C2)N3Cc2nc3c(Cl)cccc3s2)cc(OC)c1OC
5.70 to 7.00

Please list pIC50 recorded for the molecule COc1cc(C(=O)N[C@@H]2C[C@H]3CCC[C@@H](C2)N3Cc2cc3ccccc3s2)cc(OC)c1OC
5.70 to 7.00

Retrieve pIC50 measured for COc1cc(C(=O)N[C@@H]2C[C@H]3CCC[C@@H](C2)N3CC(=O)Nc2ccccc2Cl)cc(OC)c1OC and print it.
5.70 to 7.00

Assign pIC50 to the following record: CCC(C)Oc1ccc(C(=O)N[C@@H]2C[C@H]3CCC[C@@H](C2)N3Cc2nc3c(C(F)(F)F)cccc3s2)cc1OC (stereo partly shown)
> 7.00

These data points were gathered from patent US20220402908A1.
